Target: T1, DVL1, O14640
T1 sequence (O14640 246-333, limits assumed, looked up): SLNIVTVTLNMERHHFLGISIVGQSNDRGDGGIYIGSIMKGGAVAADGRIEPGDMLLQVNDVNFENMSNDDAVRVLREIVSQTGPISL
Assay: holdup assay
Design: key: below the threshold = too weak to quantify, mostly under pKd 3.1 to 4
Settings: plain residues with an end cap or a label only (N-terminal biotin on a linker: ttds)
RECORDED METRIC: pKd

BINDER: SKPTRRETEV [HPV35-E6, P27228]
TEST RESULT: below the threshold
//
BINDER: RLQRRRETQV [HPV18-E6, P06463]
TEST RESULT: below the threshold
//
BINDER: RPLPRKVSQL [DOCK4, Q8N1I0]
TEST RESULT: below the threshold
//
BINDER: RHTTSTETAV [HPV30-E6, P36809]
TEST RESULT: below the threshold
//
BINDER: QRQARSETLV [HPV59-E6, Q81964]
TEST RESULT: below the threshold
//
BINDER: RLPKIKETTV [FRMPD4, Q14CM0]
TEST RESULT: 4.63
//
BINDER: SSLQSLETSV [ATP2B4, P23634]
TEST RESULT: below the threshold
//
BINDER: SGSRPSATVV [HPV73-E6, Q82005]
TEST RESULT: 4.36
